target: Tyrosine-protein phosphatase non-receptor type 5 (Homo sapiens, UniProt P54829); experiment: STEP phosphatase inhibitor potency, dose response, orthogonal assay for STEP inhibitor project, biochemical, colorimetric absorbance (AID 624207); conditions: inactive by the depositor's call
Sequence (P54829 whole entry): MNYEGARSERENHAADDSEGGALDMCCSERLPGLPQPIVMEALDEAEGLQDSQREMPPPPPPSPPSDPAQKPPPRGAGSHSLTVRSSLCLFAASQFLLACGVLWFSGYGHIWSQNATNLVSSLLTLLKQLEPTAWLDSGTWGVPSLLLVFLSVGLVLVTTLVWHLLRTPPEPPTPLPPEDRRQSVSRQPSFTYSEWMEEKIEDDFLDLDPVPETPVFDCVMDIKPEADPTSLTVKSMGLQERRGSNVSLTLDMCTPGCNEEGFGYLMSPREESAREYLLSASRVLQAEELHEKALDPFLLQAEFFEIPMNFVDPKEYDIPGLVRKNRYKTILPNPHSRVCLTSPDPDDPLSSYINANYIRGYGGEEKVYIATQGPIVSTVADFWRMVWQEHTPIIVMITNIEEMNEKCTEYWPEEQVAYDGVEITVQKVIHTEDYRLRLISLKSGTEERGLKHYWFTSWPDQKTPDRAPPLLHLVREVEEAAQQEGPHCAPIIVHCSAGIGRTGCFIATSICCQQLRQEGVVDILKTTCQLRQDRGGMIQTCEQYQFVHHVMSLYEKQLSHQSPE
pIC50: −log10 of the molar value.
ENDPOINT_LABEL: pIC50

Examples from the recorded data:
COc1ccc(Cl)cc1N=C(S)N(CCCN1CCOCC1)Cc1cn(C)c2ccccc12 | 4.43
COc1cccc(Nc2nn3c(=O)c4ccccc4nc3s2)c1 | 4.24
Cc1ccc(N=C(S)N(CCN(C)C)Cc2cccs2)c(C)c1 | 4.25

(I) CC(C)(C)C(=O)Nc1ccc(C(=O)Nc2cccc(Oc3ccc(C(=O)O)c(C(=O)O)c3)c2)cc1
(II) S=C(NCCCN1CCOCC1)Nc1ccc(-c2nc3ccccc3[nH]2)cc1
I'm curious whether I or II has the smaller pIC50 number. Which is it? Identify your selection by its label.
II
(II: 4.10, I: 4.60)

(1) CCC(CC)c1nnc(NC(=O)c2cc(C(=O)OC)cc([N+](=O)[O-])c2)s1
(2) CCCN(CC(=O)Nc1ccccc1OC)C(=O)Cc1ccc2c(c1)CCC2
Exercise: compare 1 and 2 ; which one has the greater pIC50? Write down the label of the entry you select.
1

(A) N=C(NCc1ccc2c(c1)OCO2)NC(=O)c1ccccc1
(B) Cc1c(CC(=O)O)c(=O)oc2c(C)c(OCc3ccccc3Br)ccc12
// pick larger pIC50 from pair: A vs B Answer by stating the label of the chosen item.
B

(1) Cc1c(CC(=O)O)c(=O)oc2c(C)c(OCc3ccc(F)cc3Cl)ccc12
(2) Cc1ccc(-n2c(C)nc3oc4ccccc4c(=O)c3c2=O)cc1
(3) N#CNc1nc(O)cc(=O)[nH]1
Exam item: list the entries in increasing order of pIC50. Write the labels, ordered according to the request.
2, 3, 1
